Test: Selectivity index, IC50 for L6 cells/IC50 for Plasmodium falciparum K1
Assay type: functional
Below is a list of entries, each paired with its recorded Ratio IC50 value.
Just the number, please, no unit attached.

# annotated cases, reported Ratio IC50 shown
>>> print(df.to_string())
                                   compound  readout_name  experimental_value
0  OC1CC2(N3CCCCC3)CC(c3ccccc3)C1C(c1ccccc1)C2 (stereo unspecified)    Ratio IC50               44.45
1  O/N=C1\CC2(N3CCCC3)CC(c3ccccc3)C1C(c1ccccc1)C2 (stereo unspecified)    Ratio IC50               168.1
2  O/N=C1\CC2(N3CCCCC3)CC(c3ccc(Cl)cc3)C1C(c1ccc(Cl)cc1)C2 (stereo unspecified)    Ratio IC50                17.5
3  CN(C)C12CC(O)C(C(c3ccc(Cl)cc3)C1)C(c1ccc(Cl)cc1)C2 (stereo unspecified)    Ratio IC50                8.95
4  CN(C)C12C/C(=N\O)C(C(c3ccc(Cl)cc3)C1)C(c1ccc(Cl)cc1)C2 (stereo unspecified)    Ratio IC50                7.82

# input Which Ratio IC50 reading was recorded for the compound COc1ccc(C2CC3(N4CCCCC4)CC(O)C2C(c2ccc(OC)cc2)C3)cc1 (stereo unspecified) ?
# output 8.95

# input Which Ratio IC50 reading was recorded for the compound CN(C)C12CCNC(C(c3ccc(Cl)cc3)C1)C(c1ccc(Cl)cc1)C2 (stereo unspecified) ?
# output 21.32

# input Which Ratio IC50 reading was recorded for the compound COc1ccc(C2CC3(N(C)C)CC(O)C2C(c2ccc(OC)cc2)C3)cc1 (stereo unspecified) ?
# output 11.53

# input Which Ratio IC50 reading was recorded for the compound O=C1CC2(N3CCCCC3)CC(c3ccccc3)C1C(c1ccccc1)C2 (stereo unspecified) ?
# output 11.88

# input Which Ratio IC50 reading was recorded for the compound c1ccc(C2CC3(N4CCCCC4)CCNC2C(c2ccccc2)C3)cc1 (stereo unspecified) ?
# output 140.22

# input Which Ratio IC50 reading was recorded for the compound COc1ccc(C2CC3(N(C)C)CC(=O)C2C(c2ccc(OC)cc2)C3)cc1 (stereo unspecified) ?
# output 9.66

# input Which Ratio IC50 reading was recorded for the compound CN(C)C12CCNC(C(c3ccccc3)C1)C(c1ccccc1)C2 (stereo unspecified) ?
# output 388.6

* * *

Test: Selectivity index, IC50 for L6 cells/IC50 for Plasmodium falciparum K1
Assay type: functional
Below is a list of entries, each paired with its recorded Ratio IC50 value.
Just the number, please, no unit attached.

>>> df
                                   compound  experimental_value
0  C[C@@H]1CC[C@H]2[C@@H](C)C(=O)O[C@@H]3O[C@@]4(C)CC[C@@H]1[C@]32OO4               70390
1  OC1CC2(N3CCCC3)CC(c3ccccc3)C1C(c1ccccc1)C2 (stereo not given)                11.2
2  O=C1CC2(N3CCCC3)CC(c3ccccc3)C1C(c1ccccc1)C2 (stereo not given)               22.22
3  c1ccc(C2CC3(N4CCCC4)CCNC2C(c2ccccc2)C3)cc1 (stereo not given)                 215
4  Clc1ccc(C2CC3(N4CCCCC4)CCNC2C(c2ccc(Cl)cc2)C3)cc1 (stereo not given)               17.61

# input Which Ratio IC50 reading was recorded for the compound OC1CC2(N3CCCCC3)CC(c3ccc(Cl)cc3)C1C(c1ccc(Cl)cc1)C2 (stereo not given) ?
# output 31.32

# input Which Ratio IC50 reading was recorded for the compound O=C1CC2(N3CCCCC3)CC(c3ccccc3)C(N1)C(c1ccccc1)C2 (stereo not given) ?
# output 17.97

# input Which Ratio IC50 reading was recorded for the compound Clc1ccc(C2CC3(N4CCCC4)CCNC2C(c2ccc(Cl)cc2)C3)cc1 (stereo not given) ?
# output 40.24

# input Which Ratio IC50 reading was recorded for the compound OC1CC2(N3CCCC3)CC(c3ccc(Cl)cc3)C1C(c1ccc(Cl)cc1)C2 (stereo not given) ?
# output 6.77

# input Which Ratio IC50 reading was recorded for the compound CN(C)C12C/C(=N\O)C(C(c3ccccc3)C1)C(c1ccccc1)C2 (stereo not given) ?
# output 119.4
